assay: PTX solubility in PLHNs / water; format: physicochemical
measure.name: solubility

GET /values?readout=solubility&item= CC(=O)O[C@H]1C(=O)[C@@]2(C)[C@H]([C@H](OC(=O)c3ccccc3)[C@]3(O)C[C@H](OC(=O)[C@H](O)[C@@H](NC(=O)c4ccccc4)c4ccccc4)C(C)=C1C3(C)C)[C@]1(OC(C)=O)CO[C@@H]1C[C@@H]2O [PTX, Paclitaxel]
~6 µg/mL
